Measured values drawn from paper PMC12557367 for this set.

Each entry below lists one item and its recorded pKd value.
TARGET_OR_SYSTEM: T1, recombinant human nectin-4 (human, UniProt Q96NY8 32-349)
T1 construct: nectin-4, human, recombinant; also called complete extracellular domain of nectin-4; source: bought: R&D Systems (Catalog number 2659-N4)
T1 sequence (looked up): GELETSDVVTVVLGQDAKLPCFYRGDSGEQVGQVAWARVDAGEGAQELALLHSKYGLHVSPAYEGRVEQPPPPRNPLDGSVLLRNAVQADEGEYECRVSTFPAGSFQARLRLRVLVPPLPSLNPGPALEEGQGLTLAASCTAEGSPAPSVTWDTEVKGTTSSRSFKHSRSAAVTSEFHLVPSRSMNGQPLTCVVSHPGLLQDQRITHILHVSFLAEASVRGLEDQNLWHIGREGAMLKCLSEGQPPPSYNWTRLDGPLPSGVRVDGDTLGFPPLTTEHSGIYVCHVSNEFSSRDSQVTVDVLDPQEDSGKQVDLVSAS
ASSAY_PROTOCOL: SPR; Biacore T200, human nectin-4 immobilised on CM5 chip by amine coupling, peptides as analytes, single-cycle kinetics, 25 °C, HBS-P+ pH 7.4, no DMSO, 1:1 binding model
TEST_PARAMETERS: both partners purified
pKd: −log10 of the molar value. Numbered stars: 1 amine (or outer) side, 2 acyl side, 3 side chain; on linkers, the order of the positions; unused ones are H or OH. Bridge positions count the residues as written; N and C are the ends. Square brackets hold non-standard residues; d marks the D form. * marks the point of attachment. (R)‑NODAGA = O=C(O)CN1CCN(CC(=O)O)CCN([C@H](CCC(=O)*)C(=O)O)CC1; DOTA = O=C(O)CN1CCN(CC(=O)O)CCN(CC(=O)*)CCN(CC(=O)O)CC1; TATA = O=C(CC[*:1])N1CN(C(=O)CC[*:2])CN(C(=O)CC[*:3])C1; 1Nal = N[C@@H](Cc1cccc2ccccc12)C(=O)O; 2Nal = N[C@@H](Cc1ccc2ccccc2c1)C(=O)O; Hyp = O=C(O)[C@@H]1C[C@@H](O)CN1; hArg = N=C(N)NCCCC[C@H](N)C(=O)O; Nle = CCCC[C@H](N)C(=O)O
MEASUREMENT_NAME: pKd

BINDER | OBSERVED_RESULT
{(R)‑NODAGA}-CP[1Nal][dD]C[Nle][hArg]DWSTP[Hyp]WC-NH2 (linker 1-5-15 via TATA) [3a] | 8.88
{(R)‑NODAGA}-CP[1Nal][dD]CMRDWSTP[Hyp]WC-NH2 (linker 1-5-15 via TATA) [10] | 8.60
{(R)‑NODAGA}-CP[2Nal][dD]CM[hArg]DWSTP[Hyp]WC-NH2 (linker 1-5-15 via TATA) [9] | 8.34
{DOTA}-CP[2Nal][dD]CMRDWSTP[Hyp]WC-NH2 (linker 1-5-15 via TATA) [8c] | 6.90
{DOTA}-CP[1Nal][dD]CM[hArg]DWSTP[Hyp]WC-NH2 (linker 1-5-15 via TATA) [1f] | 8.88
{(R)‑NODAGA}-CP[2Nal][dD]CMRDWSTP[Hyp]WC-NH2 (linker 1-5-15 via TATA) [8a] | 7.20
{(R)‑NODAGA}-CP[1Nal][dD]CM[hArg]DWSTP[Hyp]WC-NH2 (linker 1-5-15 via TATA) [1e] | 8.44
{DOTA}-CP[2Nal][dD]CMRDWSTP[Hyp]WC-OH (linker 1-5-15 via TATA) [8d (N188)] | 6.63
{(R)‑NODAGA}-CP[1Nal][dD]CM[hArg]DWSTP[Hyp]WC-NH2 (linker 1-5-15 via TATA; also: NODAGA complexed with natGa) [natGa-1e] | 8.62
